Assignment: determine reported pEC50 for the given compounds.
# Tested on: rat adipocytes
# EXPERIMENTAL DETAILS: In vitro lipolysis assay (antilipolytic activity in rat adipocytes)
# Type: cell-based
# MEASUREMENT SETUP: Rattus norvegicus, Adipocyte, 1 h; norepinephrine-stimulated lipolysis, glycerol assayed, 60 min; read-out: Lipo ec50
# pEC50 = -log10(concentration in molar units)

# input Lab note: need pEC50 with rat adipocytes for entry CC[C@H](C)NC(=O)[C@H]1C[C@@H](n2cnc3c(N[C@H]4CCN(c5ccc(C(F)(F)F)cn5)C4)ncnc32)[C@H](O)[C@@H]1O [Example 61] , please look it up.
# output 7.74

# input Would you mind doing OC[C@H]1O[C@@H](n2cnc3c(N[C@H]4CCN(c5cc(Cl)ncn5)C4)ncnc32)[C@H](O)[C@@H]1O [Example 21] as well?
# output 8.61

# input Next up: CC(C)OC[C@H]1C[C@@H](n2cnc3c(N[C@H]4CCN(c5cc(C(F)(F)F)ccn5)C4)ncnc32)[C@H](O)[C@@H]1O [Example 50]
# output 6.44

# input Then this compound: COC[C@H]1C[C@@H](n2cnc3c(N[C@H]4CCN(c5cccc(Cl)c5)C4)ncnc32)[C@H](O)[C@@H]1O [Example 56]
# output 8.62

# input OC[C@H]1C[C@@H](n2cnc3c(N[C@H]4CCN(c5ccc(Br)cn5)C4)ncnc32)[C@H](O)[C@@H]1O [Example 32] , same question.
# output 8.10

# input Also need N#Cc1ccc(N2CC[C@H](Nc3ncnc4c3ncn4[C@@H]3C[C@H](CO)[C@@H](O)[C@H]3O)C2)cc1 [Example 40] , thanks.
# output 7.98

# input For COC[C@H]1C[C@@H](n2cnc3c(N[C@H]4CCN(c5ccc(Br)cn5)C4)ncnc32)[C@H](O)[C@@H]1O [Example 52] then?
# output 7.77

# input Do the same for COC[C@H]1C[C@@H](n2cnc3c(N[C@H]4CCN(c5ccc(C(F)(F)F)cn5)C4)ncnc32)[C@H](O)[C@@H]1O [Example 3] please
# output 8.25

# input Now this one: OC[C@H]1C[C@@H](n2cnc3c(N[C@H]4CCN(c5nccc6ccccc56)C4)ncnc32)[C@H](O)[C@@H]1O [Example 41]
# output 6.74

# input Subsequent entry: COC[C@H]1C[C@@H](n2cnc3c(N[C@H]4CCN(c5ccc(Cl)cc5)C4)ncnc32)[C@H](O)[C@@H]1O [Example 55]
# output 8.48

# input Another compound to look at: COC[C@H]1C[C@@H](n2cnc3c(N[C@H]4CCN(c5cc(Cl)ncn5)C4)ncnc32)[C@H](O)[C@@H]1O [Example 46]
# output 7.03

# input Item: OC[C@H]1C[C@@H](n2cnc3c(N[C@H]4CCN(c5cc(C(F)(F)F)ccn5)C4)ncnc32)[C@H](O)[C@@H]1O [Example 34]
# output 8.48

# input Repeat with COC[C@H]1C[C@@H](n2cnc3c(N[C@H]4CCN(c5ncc(C(F)(F)F)cc5Cl)C4)ncnc32)[C@H](O)[C@@H]1O [Example 44]
# output 6.65

# input What would you report for O=[N+]([O-])c1ccc(N2CC[C@H](Nc3ncnc4c3ncn4[C@@H]3C[C@H](CO)[C@@H](O)[C@H]3O)C2)cc1 [Example 37] ?
# output 8.55

# input What would you report for COC[C@H]1C[C@@H](n2cnc3c(N[C@H]4CCN(c5ccc(C(F)(F)F)cc5)C4)ncnc32)[C@H](O)[C@@H]1O [Example 54] ?
# output 7.56

# input Similarly, Cl.Cl.OC[C@H]1C[C@@H](n2cnc3c(N[C@H]4CCNC4)ncnc32)[C@H](O)[C@@H]1O [Example 26, dihydrochloride] ?
# output 6.75
